- subject of test: PGL-3 condensates (Caenorhabditis elegans)
- Sequence (G5EBV6 1-693): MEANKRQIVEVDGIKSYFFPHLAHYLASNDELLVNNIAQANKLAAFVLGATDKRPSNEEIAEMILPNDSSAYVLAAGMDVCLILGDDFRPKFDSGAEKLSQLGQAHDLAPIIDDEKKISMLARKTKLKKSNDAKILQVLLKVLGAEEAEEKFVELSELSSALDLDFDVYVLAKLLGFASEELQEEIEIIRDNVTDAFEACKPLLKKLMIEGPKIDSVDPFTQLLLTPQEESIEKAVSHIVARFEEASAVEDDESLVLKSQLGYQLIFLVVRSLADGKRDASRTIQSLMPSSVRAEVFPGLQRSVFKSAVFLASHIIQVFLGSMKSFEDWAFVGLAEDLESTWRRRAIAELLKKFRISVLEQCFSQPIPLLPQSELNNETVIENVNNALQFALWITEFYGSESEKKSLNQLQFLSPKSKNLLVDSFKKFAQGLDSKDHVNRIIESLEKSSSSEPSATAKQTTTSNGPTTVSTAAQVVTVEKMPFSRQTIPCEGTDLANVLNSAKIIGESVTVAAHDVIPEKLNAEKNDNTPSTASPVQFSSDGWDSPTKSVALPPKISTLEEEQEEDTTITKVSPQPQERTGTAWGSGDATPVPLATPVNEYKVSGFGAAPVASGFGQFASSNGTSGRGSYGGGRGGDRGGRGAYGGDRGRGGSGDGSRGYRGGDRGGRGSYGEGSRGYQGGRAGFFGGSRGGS
- procedure details: Fluorescence imaging of dye partitioning in PGL-3 condensates (I-in, I-out)
- Assay type: physicochemical
- study conditions: outside PGL-3 condensate; 10 μM dye, 5 μM protein; image 1; one day of experiments
Counter-ions that a name gives are not always drawn.
experimental readout: Intensity Outside with Dye 1

Known results for compounds:
compound: O=C1OC2(c3ccc(O)cc3Oc3cc(O)ccc32)c2ccccc21 [Dye 6, Fluorescein]
Intensity Outside with Dye 1: 4395.6
--
compound: O=c1cc(C(F)(F)F)c2ccc(O)cc2o1 [Dye 2, 7-Hydroxy-4-(trifluoromethyl)-coumarin]
Intensity Outside with Dye 1: 263.1
--
compound: O=C(O)c1cc2cc3c4c(c2oc1=O)CCCN4CCC3 [Dye 3, Coumarin 343]
Intensity Outside with Dye 1: 1472.5
--
compound: O=C([O-])c1ccccc1C1=c2cc3c4c(c2Oc2c1cc1c5c2CCCN5CCC1)CCC[N+]=4CCC3 [Dye 17, Rhodamine 101 inner salt]
Intensity Outside with Dye 1: 7184.0
--
compound: N=C(N)c1ccc(-c2cc3ccc(C(=N)N)cc3[nH]2)cc1 [Dye 1, DAPI]
Intensity Outside with Dye 1: 173.1
--
compound: CCN(CC)c1ccc2c(-c3ccccc3C(=O)O)c3ccc(=[N+](CC)CC)cc-3oc2c1 [Dye 16, Rhodamine B]
Intensity Outside with Dye 1: 3907.8

[A] CC/N=c1/cc2oc3cc(NCC)c(C)cc3c(-c3ccccc3C(=O)NCCOCCOCCN)c-2cc1C.O=C(O)C(F)(F)F [Dye 15]
[B] CC(=O)Oc1ccc2c(c1)Oc1cc(OC(C)=O)ccc1C21OC(=O)c2ccccc21 [Dye 9, Fluorescein diacetate]
**Q:** // task: argmin of Intensity Outside with Dye 1 over [ A , B ] Answer with the label corresponding to your selection.
**A:** B

The reported numbers originate from patent US12174198B2.
